Consider the following binders; for each one, report its relative binding ratio.
Molecular target: HLA-A*3301 (purified HLA class I molecule) (human)
Assay: inhibition of 125I probe peptide binding to purified HLA; ratio to standard peptide

Recorded relative binding ratio (binder DLSYMPIWK (also called Her2/neu.607 (9-mer)) [HER2/neu peptide, position 607, 9 amino acids] ): 0.088 ratio (IC50 standard / IC50 test)

Recorded relative binding ratio (binder GTQRCEKCSK (also called Her2/neu.327 (10-mer)) [HER2/neu peptide, position 327, 10 amino acids] ): 0.0012 ratio (IC50 standard / IC50 test)

Recorded relative binding ratio (binder CVARCPSGVK (also called Her2/neu.596 (10-mer)) [HER2/neu peptide, position 596, 10 amino acids] ): 0.0064 ratio (IC50 standard / IC50 test)

Recorded relative binding ratio (binder CVNCSQFLR (also called Her2/neu.528) [HER2/neu peptide, position 528, 9 amino acids] ): 0.58 ratio (IC50 standard / IC50 test)
